# ASSAY COMMENT: Experimental Example 4: comparison of hygroscopicity by weight gain over time (40 to 46% RH)
# Assay type: physicochemical
# TEST CONTEXT: 24° C., 150 minutes
Known weight increase rate (%) of a selection of compounds
Field format: number, assumed %, no unit text.

Past entries and their recorded results:
COMPOUND: CCOC(=O)[C@H](C)N.O=S(=O)(O)c1ccc(Cl)cc1 [L-Ala-OEt 4-CBS salt]
MEASURED NUMBER: 2.17

COMPOUND: CCOC(=O)[C@H](C)N.CS(=O)(=O)O [L-Ala-OEt MsOH salt, L-alanine ethyl ester methanesulfonate]
MEASURED NUMBER: 0.39

COMPOUND: CCOC(=O)[C@H](C)N.O=S(=O)(O)c1ccccc1 [L-Ala-OEt BsOH salt, L-alanine ethyl ester benzenesulfonate]
MEASURED NUMBER: 1.02

Then there is this compound:
// CCOC(=O)[C@H](C)N.Cl [L-Ala-OEt HCl salt, alanine ethyl ester hydrochloride] : weight increase rate (%) value = 10.39
